# credit: patent US9423396B2

assayProcedure: Spectroscopic measurements (absorption, emission, quantum yield, extinction coefficient)
Assay type: physicochemical
statedConditions: BDNCA library, fluorescence emission
Classify as follows. Reported Flu greater than or equal to 600: T. Reported Flu below: F.

Worked examples, 2 molecules total:
# substanceSmiles, className
data = [
    ("CCOc1ccc(/C=C/C2=[N+]3C(=C(c4ccc(NC(=O)CCl)cc4)c4cccn4[B-]3(F)F)C(C)=C2)cc1OCC", "T"),
    ("CC1=CC(/C=C/c2ccc(OC(F)(F)F)cc2)=[N+]2C1=C(c1ccc(NC(=O)CCl)cc1)c1cccn1[B-]2(F)F", "F"),
]

Record CC1=CC(/C=C/c2ccc(C)c(F)c2)=[N+]2C1=C(c1ccc(NC(=O)CCl)cc1)c1cccn1[B-]2(F)F ; criterion: Flu no lower than 600. Met? F

Does COc1cc(/C=C/C2=[N+]3C(=C(c4ccc(NC(=O)CCl)cc4)c4cccn4[B-]3(F)F)C(C)=C2)cc(OC)c1OC(C)=O have a reported Flu of at least 600? F

Textbook exercise: given the entry COC(=O)c1ccc(/C=C/C2=[N+]3C(=C(c4ccc(NC(=O)CCl)cc4)c4cccn4[B-]3(F)F)C(C)=C2)cc1 , state whether its Flu is greater than or equal to 600. F

---

assayProcedure: Spectroscopic measurements (absorption, emission, quantum yield, extinction coefficient)
Type: physicochemical
statedConditions: BDNCA library
Threshold-based label: Qunt. Yield under 0.1 gives YES, Qunt. Yield not under 0.1 gives NO.

# substanceSmiles, className
rows = [
    ("CC1=CC(/C=C/c2csc3ccccc23)=[N+]2C1=C(c1ccc(NC(=O)CCl)cc1)c1cccn1[B-]2(F)F", "NO"),
    ("Cc1ccc(/C=C/c2cc(C)c3n2[B-](F)(F)[N+]2=CC=CC2=C3c2ccc(NC(=O)CCl)cc2)cc1", "NO"),
    ("CC1=CC(/C=C/c2cc(Br)ccc2O)=[N+]2C1=C(c1ccc(NC(=O)CCl)cc1)c1cccn1[B-]2(F)F", "YES"),
]

Please let me know if Cc1cc(/C=C/c2cccc(Br)c2O)n2c1C(c1ccc(NC(=O)CCl)cc1)=C1C=CC=[N+]1[B-]2(F)F shows Qunt. Yield below 0.1. YES

Does the reported Qunt. Yield of CC1=CC(/C=C/c2ccc(-c3cncnc3)cc2)=[N+]2C1=C(c1ccc(NC(=O)CCl)cc1)c1cccn1[B-]2(F)F stay below 0.1? NO

Quick check: does CC1=CC(/C=C/c2ccc(Oc3ccccc3)cc2)=[N+]2C1=C(c1ccc(NC(=O)CCl)cc1)c1cccn1[B-]2(F)F have Qunt. Yield under 0.1? NO

---

assayProcedure: Spectroscopic measurements (absorption, emission, quantum yield, extinction coefficient)
Format: physicochemical
statedConditions: BDNCA library, fluorescence emission
recordedMetric: Flu
Answer field: number only, no words.

Previously resolved entries follow.
# substanceSmiles, recordedMetric, numericReadout
records = [
    ("CC1=CC(/C=C/c2cccc3c2OCO3)=[N+]2C1=C(c1ccc(NC(=O)CCl)cc1)c1cccn1[B-]2(F)F", "Flu", 578),
    ("Cc1cc(/C=C/c2ccc(CO)o2)n2c1C(c1ccc(NC(=O)CCl)cc1)=C1C=CC=[N+]1[B-]2(F)F", "Flu", 608),
    ("COc1ccc(Oc2cccc(/C=C/C3=[N+]4C(=C(c5ccc(NC(=O)CCl)cc5)c5cccn5[B-]4(F)F)C(C)=C3)c2)cc1", "Flu", 577),
    ("CC1=CC(/C=C/c2ccc(Oc3ccccc3)cc2)=[N+]2C1=C(c1ccc(NC(=O)CCl)cc1)c1cccn1[B-]2(F)F", "Flu", 589),
]

Let's switch to this compound now.
Name the reported Flu value associated with the compound COc1cccc(Oc2ccccc2/C=C/C2=[N+]3C(=C(c4ccc(NC(=O)CCl)cc4)c4cccn4[B-]3(F)F)C(C)=C2)c1 581
